Readings of pIC50 for the listed compounds
# system_name: Cholinesterase (Equus caballus)
# Sequence (P81908 whole entry): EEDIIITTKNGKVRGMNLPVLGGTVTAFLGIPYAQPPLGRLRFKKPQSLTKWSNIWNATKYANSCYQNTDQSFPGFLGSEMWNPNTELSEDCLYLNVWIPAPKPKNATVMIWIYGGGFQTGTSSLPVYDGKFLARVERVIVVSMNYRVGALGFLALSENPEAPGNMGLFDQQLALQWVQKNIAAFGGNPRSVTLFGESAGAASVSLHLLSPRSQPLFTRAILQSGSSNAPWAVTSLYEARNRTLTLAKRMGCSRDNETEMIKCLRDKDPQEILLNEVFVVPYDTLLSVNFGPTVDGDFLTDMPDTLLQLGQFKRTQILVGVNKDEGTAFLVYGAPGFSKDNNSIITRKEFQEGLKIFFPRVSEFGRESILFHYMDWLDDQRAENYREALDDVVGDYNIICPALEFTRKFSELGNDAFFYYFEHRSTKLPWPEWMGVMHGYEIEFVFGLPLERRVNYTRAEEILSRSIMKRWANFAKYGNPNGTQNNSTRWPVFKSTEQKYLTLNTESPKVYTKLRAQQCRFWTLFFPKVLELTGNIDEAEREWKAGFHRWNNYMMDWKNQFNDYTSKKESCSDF
# experiment: Inhibition of equine serum BuChE using S-butyrylthiocholine iodide as a substrate measured for 125 secs by DNTB reagent based Ellman's method
As a rule, pIC50 stands for the negative log10 of the concentration, concentration in M.

Record excerpt, results attached:
[
  {
    "compound": "CC(C)(C)CC(C)(C)NC(=O)C1(N2CCC2=O)C(=O)N(Cc2ccccc2)c2ccccc21 (stereo not given)",
    "pIC50": 5.74
  },
  {
    "compound": "CN1C(=O)C(C(=O)NC(C)(C)CC(C)(C)C)(N2CCCC2=O)c2ccccc21 (stereo not given)",
    "pIC50": 4.74
  },
  {
    "compound": "Cc1cc(C)c2c(c1)C(C(=O)NC(C)(C)C)(N1CCC1=O)C(=O)N2 (stereo not given)",
    "pIC50": 4.24
  },
  {
    "compound": "CC(C)(C)CC(C)(C)NC(=O)C1(N2CCCC2=O)C(=O)Nc2ccccc21 (stereo not given)",
    "pIC50": 5.08
  },
  {
    "compound": "O=C1CCCN1C1(C(=O)NC2CCCCC2)C(=O)Nc2ccccc21 (stereo not given)",
    "pIC50": 4.36
  }
]

Q. Given the compound CC(C)(C)NC(=O)C1(N2CCC2=O)C(=O)N(c2ccccc2)c2ccccc21 (stereo not given) , what is its reported pIC50?
A. 4.66

Q. Given the compound CC(C)(C)NC(=O)C1(N2CCCC2=O)C(=O)Nc2ccccc21 (stereo not given) , what is its reported pIC50?
A. 4.27

Q. Given the compound CC(C)(C)NC(=O)C1(N2CCC2=O)C(=O)N(Cc2ccccc2)c2ccccc21 (stereo not given) , what is its reported pIC50?
A. 4.29
